biological target: D(3) dopamine receptor (Homo sapiens); experiment: biochemical
Sequence (P35462 whole entry): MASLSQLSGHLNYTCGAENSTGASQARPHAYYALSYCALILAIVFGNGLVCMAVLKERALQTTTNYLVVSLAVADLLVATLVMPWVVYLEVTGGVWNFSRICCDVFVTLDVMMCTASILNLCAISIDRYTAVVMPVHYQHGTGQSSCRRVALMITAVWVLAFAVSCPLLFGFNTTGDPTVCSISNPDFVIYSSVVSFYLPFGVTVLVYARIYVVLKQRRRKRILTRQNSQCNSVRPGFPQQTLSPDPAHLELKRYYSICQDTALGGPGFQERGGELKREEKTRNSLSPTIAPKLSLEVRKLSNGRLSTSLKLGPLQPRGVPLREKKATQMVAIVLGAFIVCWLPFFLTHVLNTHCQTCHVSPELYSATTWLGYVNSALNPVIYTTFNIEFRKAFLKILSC
Description: Displacement of [3H]spiperone from human dopamine D3 expressed in CHO cell membrane
pKi: −log10 of the molar value.
PROPERTY: pKi

Please review the following examples before continuing.
# SMILES_ENTRY, MEASUREMENT
data = [
    ("COc1ccccc1N1CCN(CCCCNC(=O)c2nnn(Cc3ccccc3)c2C)CC1", 7.17),
    ("CCCc1c(C(=O)NCCCCN2CCN(c3ccccc3OC)CC2)nnn1Cc1ccc(OC)cc1", 7.89),
    ("COc1ccccc1N1CCN(CCCCCNC(=O)c2nnn(Cc3ccccc3Br)c2C)CC1", 7.82),
]

[A] COc1ccccc1N1CCN(CCCCNC(=O)c2ccc(-c3cccc([18F])n3)cc2)CC1
[B] O=C(NCCCCN1CCN(c2cccc(Cl)c2Cl)CC1)c1cc2cc(Br)ccc2o1
Of the two listed items, which has the higher pKi? First: A Second: B # reply format: chosen label
A
(A: 9.43, B: 8.46)

[a] COc1ccccc1N1CCN(CCCCNC(=O)c2nnn(Cc3ccccc3Br)c2C)CC1
[b] COc1ccccc1N1CCN(CCCCNC(=O)c2cc3cc(C#N)ccc3[nH]2)CC1
Select the item whose pKi value is smaller, choosing between a and b . # reply format: chosen label
a

[a] C#Cc1ccc2cc(C(=O)NCCCCN3CCN(c4ccccc4OC)CC3)sc2c1
[b] CCCc1c(C(=O)NCCCCN2CCN(c3ccccc3OC)CC2)nnn1Cc1ccccc1
Select the item whose pKi value is smaller, choosing between a and b . # reply format: chosen label
b
(b: 7.96, a: 9.42)
